Hello, the source for this data is patent US9388195B2, in case you need it.

subject-of-test: Cdc7/Dbf4 complex (Homo sapiens)
Construct: Full-length Cdc7 co-expressed with full-length Dbf4; purchased Carna Biosciences (Kobe)
Sequence (O00311 whole entry): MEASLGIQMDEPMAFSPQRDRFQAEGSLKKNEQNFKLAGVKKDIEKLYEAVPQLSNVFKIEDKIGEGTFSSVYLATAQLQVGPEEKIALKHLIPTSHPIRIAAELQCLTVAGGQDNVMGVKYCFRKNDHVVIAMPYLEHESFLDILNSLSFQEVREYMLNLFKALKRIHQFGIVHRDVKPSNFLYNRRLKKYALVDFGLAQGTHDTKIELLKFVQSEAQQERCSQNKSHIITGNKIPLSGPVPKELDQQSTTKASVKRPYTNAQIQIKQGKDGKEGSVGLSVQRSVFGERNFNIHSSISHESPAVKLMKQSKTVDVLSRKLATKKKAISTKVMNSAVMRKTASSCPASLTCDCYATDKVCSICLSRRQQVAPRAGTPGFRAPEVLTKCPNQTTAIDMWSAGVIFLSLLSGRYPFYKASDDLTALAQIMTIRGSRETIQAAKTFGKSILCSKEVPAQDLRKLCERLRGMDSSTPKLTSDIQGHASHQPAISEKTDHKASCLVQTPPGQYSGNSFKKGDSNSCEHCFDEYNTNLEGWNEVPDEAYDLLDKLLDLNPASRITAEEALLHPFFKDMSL
Sequence (Q9UBU7 whole entry partner): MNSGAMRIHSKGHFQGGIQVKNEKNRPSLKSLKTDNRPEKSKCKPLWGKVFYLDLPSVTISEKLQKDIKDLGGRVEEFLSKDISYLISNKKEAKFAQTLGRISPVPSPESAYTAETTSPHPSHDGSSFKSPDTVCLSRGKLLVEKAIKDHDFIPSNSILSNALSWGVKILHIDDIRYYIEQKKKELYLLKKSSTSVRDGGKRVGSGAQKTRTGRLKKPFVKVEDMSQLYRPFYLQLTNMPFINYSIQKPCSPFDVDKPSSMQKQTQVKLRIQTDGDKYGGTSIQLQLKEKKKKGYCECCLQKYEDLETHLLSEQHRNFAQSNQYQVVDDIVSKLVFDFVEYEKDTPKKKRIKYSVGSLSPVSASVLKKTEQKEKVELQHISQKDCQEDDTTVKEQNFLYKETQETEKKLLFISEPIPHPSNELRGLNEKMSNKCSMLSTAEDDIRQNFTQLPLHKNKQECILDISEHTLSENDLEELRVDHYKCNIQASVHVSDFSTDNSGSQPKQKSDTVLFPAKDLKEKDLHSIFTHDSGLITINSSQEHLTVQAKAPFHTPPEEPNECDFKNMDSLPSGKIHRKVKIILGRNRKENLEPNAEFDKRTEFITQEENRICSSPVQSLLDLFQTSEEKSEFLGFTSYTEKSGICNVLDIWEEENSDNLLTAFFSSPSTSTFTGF
experiment-description: Measurement of Cdc7 kinase inhibitory activity (Transcreener ADP HTRF assay)
Assay type: biochemical
measurement-context: test compound 1 μM; Cdc7/Dbf4, 1.0 μm ATP, 10 μg/ml MCM2; read-out: inhibitory rate (%) at 1 μM
Protocol: Full-length Cdc7 co-expressed with full-length Dbf4 was purchased from Carna Biosciences (Kobe). The enzyme activity of Cdc7/Dbf4 complex was detected by homogeneous time-resolved fluorescence method Transcreener ADP assay (Cisbio Inc., MA, U.S.A.). […] Free ADP produced by ATP hydrolysis was detected by Eu^3+-Cryptate-labeled anti-ADP monoclonal antibody competitively with d2-labeled ADP, and the production amount thereof was measured. […]
Structures can show the parent of a compound that is named as a salt.
Reported inhibition at 1 µM values for a set of compounds

{"compound": "Cc1[nH]ncc1-c1cc2nc([C@H]3NC[C@H]4C[C@H]43)[nH]c(=O)c2s1 (relative stereo) [Example 87, dihydrochloride]", "output-unit": "%", "inhibition at 1 µM": 107}
{"compound": "Cc1[nH]ncc1-c1cc2nc(CN3CC=CCC3)[nH]c(=O)c2s1 [Example 75]", "output-unit": "%", "inhibition at 1 µM": 107}
{"compound": "Cc1[nH]ncc1-c1cc2nc(CN3CC[C@H](F)C3)[nH]c(=O)c2s1 [Example 4]", "output-unit": "%", "inhibition at 1 µM": 102}
{"compound": "Cc1[nH]ncc1-c1cc2nc([C@@H]3C[C@@H]4CCCC[C@@H]4N3)[nH]c(=O)c2s1 [Example 78]", "output-unit": "%", "inhibition at 1 µM": 86.2}
